EXPERIMENT: Pharmacokinetic test in monkeys
Format: in vivo
ASSAY_CONDITIONS: cynomolgus monkey; male cynomolgus monkeys, plasma; i.v. 1 mg/kg and i.g. 5 mg/kg groups, route of the parameter not given
Experimental: Experimental animals: male cynomolgus monkeys, 3-5 kg, 3-6 years old, divided into an intravenous group and an intragastric group. Experimental method: on the day of the experiment, the monkeys were randomly grouped according to their body weights. […] Before and after the administration, 1.0 mL of blood was taken from the limb veins and placed in an EDTAK2 centrifuge tube. […] Before analysis and detection, all samples were stored at -80°C, and the samples were quantitatively analysed by LC-MS/MS. […]
ASSAY_METRIC: AUC(0-t) (ng·h/mL)
Dear colleague, please return just the value in ng·h/mL, with no unit written.

Input line: Quick check: AUC(0-t) of `Cc1cc(=O)n(C(F)F)c2c1CN(C(=O)CC1CN(c3ccnc(OC4CC(F)(F)C4)c3)C1)C2` ?
Output line: 5940

###

EXPERIMENT: Pharmacokinetic test in rats (plasma and brain)
Assay type: in vivo, SD rats
ASSAY_CONDITIONS: rat, in vivo; male SD rats, plasma; i.v. 2.5 mg/kg and i.g. 10 mg/kg groups, route of the parameter not given; read-out: AUC0-t
ASSAY_METRIC: AUC(0-t) (ng·h/mL)
Dear colleague, please return just the value in ng·h/mL, with no unit written.

Input line: Quick check: AUC(0-t) of `Cc1cc(C)c2c(n1)CN(C(=O)CC1CN(c3ccnc(-n4ccc(C)n4)c3)C1)C2` ?
Output line: 12200

###

EXPERIMENT: Pharmacokinetic test in mice (plasma and brain)
Type: in vivo, C57 mice
ASSAY_CONDITIONS: mouse, in vivo; male C57 mice, plasma; i.v. 2.5 mg/kg and i.g. 10 mg/kg groups, route of the parameter not given
ASSAY_METRIC: Cmax (ng/mL)
Dear colleague, please return just the value in ng/mL, with no unit written.

Input line: Quick check: Cmax of `Cc1nc(-c2cnn(C)c2)nc2c1CN(C(=O)CC1CN(c3ccnc(C(F)(F)F)c3)C1)C2` ?
Output line: 6400

###

EXPERIMENT: Pharmacokinetic test in mice (plasma and brain)
Format: in vivo, C57 mice
ASSAY_CONDITIONS: mouse, in vivo, po; mice, i.g. (10 mg/kg); read-out: Brain/plasma ratio
ASSAY_METRIC: Kp
Enter a number only.

Input line: Quick check: Kp of Cc1cc(-c2cnn(C)c2)nc2c1CN(C(=O)CC1CN(c3ccnc(OC4CC(F)(F)C4)c3)C1)C2 [Compound 104] ?
Output line: 0.528

###

EXPERIMENT: Pharmacokinetic test in mice (plasma and brain)
Assay type: in vivo, C57 mice
ASSAY_CONDITIONS: mouse, in vivo; male C57 mice, plasma; i.v. 2.5 mg/kg and i.g. 10 mg/kg groups, route of the parameter not given
ASSAY_METRIC: clearance
Numeric answer plus unit only.

Input line: Quick check: clearance of `Cc1nc(-c2cnn(C)c2)nc2c1CN(C(=O)CC1CN(c3ccnc(C(F)(F)F)c3)C1)C2` ?
Output line: 9.24 mL/min/kg

###

ASSAY_TARGET: M4 receptor (Homo sapiens)
Sequence (P08173 whole entry): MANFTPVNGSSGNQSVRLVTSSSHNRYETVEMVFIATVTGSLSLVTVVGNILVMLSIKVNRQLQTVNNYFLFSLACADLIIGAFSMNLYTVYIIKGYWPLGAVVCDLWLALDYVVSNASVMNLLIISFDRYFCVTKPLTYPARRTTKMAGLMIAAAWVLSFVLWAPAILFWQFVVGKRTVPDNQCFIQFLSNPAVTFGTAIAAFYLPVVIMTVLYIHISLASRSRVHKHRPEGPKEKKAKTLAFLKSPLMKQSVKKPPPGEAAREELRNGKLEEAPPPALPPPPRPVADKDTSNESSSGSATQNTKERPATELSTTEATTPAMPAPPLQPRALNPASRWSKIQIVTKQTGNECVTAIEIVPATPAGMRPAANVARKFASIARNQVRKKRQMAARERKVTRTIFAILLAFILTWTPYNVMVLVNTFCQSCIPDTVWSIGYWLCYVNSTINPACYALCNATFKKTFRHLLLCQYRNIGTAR
EXPERIMENT: PAM agonistic activity of compound on M4 receptor (FLIPR Calcium 6 assay in M4-CHO cells)
ASSAY_CONDITIONS: with acetylcholine (Ach), final concentration 3 nM
pEC50: −log10 of the molar value.
ASSAY_METRIC: pEC50

Example entries and their recorded answers appear below.
{"columns": ["COMPOUND", "pEC50"],
 "data": [
  ["Cc1cc(=O)n(C)c2c1CN(C(=O)CC1CN(c3ccnc(O[C@@H]4CCOC4)c3)C1)C2 [Compound 118]", "> 7.00"],
  ["Cc1cc(C)c2c(n1)CN(C(=O)CC1CN(c3ccnc(-c4cc(C(F)(F)F)n(C)n4)c3)C1)C2 [Compound 14]", "> 7.00"],
  ["Cc1c2c(n(C)c(=O)c1F)CN(C(=O)CC1CN(c3ccnc(OC4CCOC4)c3)C1)C2 (stereo not shown) [Compound 199]", "> 7.00"]
]}

Input line: Identify the measured pEC50 of COc1nc(C)c2c(n1)CN(C(=O)CC1CN(c3ccnc(OC4CC(F)(F)C4)c3)C1)C2 [Compound 137] for M4 receptor (Homo sapiens).
Output line: > 7.00

Input line: Identify the measured pEC50 of Cc1cc(-c2cnn(C)c2)nc2c1CN(C(=O)CC1CN(c3ccnc(OC4CCOC4)c3)C1)C2 (stereo not shown) [Compound 170] for M4 receptor (Homo sapiens).
Output line: > 7.00

Input line: Identify the measured pEC50 of Cc1cc(=O)n(C)c2c1CN(C(=O)CC1CN(c3ccnc(OC4CC(F)(F)C4)c3)C1)C2 [Compound 101] for M4 receptor (Homo sapiens).
Output line: > 7.00

Input line: Identify the measured pEC50 of Cc1cc(-c2cnoc2)nc2c1CN(C(=O)CC1CN(c3ccnc(OC4CC(F)(F)C4)c3)C1)C2 [Compound 216] for M4 receptor (Homo sapiens).
Output line: > 7.00
